Data origin: ChEMBL document CHEMBL3507680

# test.method.notes: Human HepG2 cell viability assay in 384 well format
# Assay type: toxicity, cell-based
# Set-up: dose 125 nL, time 70.5 hour; concentration not given beside the values
# condition.summary: HepG2 cells, read-out: Inhibition
Catalogue of compounds with associated cytotoxicity at 70.5 h
Report the figure in % without appending any unit label.

Solved cases (3 shown):
{"compound": "CS(=O)(=O)NCCN1CCSCC1c1ccc(Cl)cc1 (stereo unspecified)", "value.reported": -2.66}
{"compound": "CCC(C)N(Cc1ccsc1)C(=O)c1ccc(CO)cc1 (stereo unspecified)", "value.reported": -0.23}
{"compound": "O=C(CCC(F)(F)F)N1CCCC2(CCC(=O)N(CC3CC3)C2)C1 (stereo unspecified)", "value.reported": -15.8}

[ask] Query: cytotoxicity at 70.5 h; subject: CC(=O)NCCNC(=O)N(C)Cc1ccc2c(c1)OCCO2
[reply] -12

[ask] Query: cytotoxicity at 70.5 h; subject: CCOC(=O)c1nnc2ccccc2c1N1CCOC(C)(C)C1
[reply] 16.1

[ask] Query: cytotoxicity at 70.5 h; subject: O=C(N[C@H]1CCCC[C@@H]1O)c1ccc(-c2nc3ccccc3[nH]2)cc1
[reply] -1.28

* * *

# test.method.notes: Human HepG2 cell viability assay in 384 well format
# Type: toxicity, cell-based
# Parameters: dose 125 nL, time 70.5 hour; concentration not given beside the values
# condition.summary: HepG2 cells, read-out: Inhibition
parameter: cytotoxicity at 70.5 h (%)
Report the figure in % without appending any unit label.

{"compound": "Cc1ccc(-c2nnc(SCC(=O)O)n2-c2ccc(C)cc2)cc1", "value.reported": -15.4}

[ask] Query: cytotoxicity at 70.5 h; subject: CC(=O)Nc1ccc(CN2CCCC(c3cc4ncccc4[nH]3)C2)cc1 (stereo unspecified)
[reply] -5.47

[ask] Query: cytotoxicity at 70.5 h; subject: COc1ccc(C)cc1CN(Cc1nc(C)c(C)o1)C1CCN(C)C1 (stereo unspecified)
[reply] 3.17

[ask] Query: cytotoxicity at 70.5 h; subject: CNC(=O)Cn1c(CO)cnc1SCc1ccccc1Cl
[reply] 16.9

[ask] Query: cytotoxicity at 70.5 h; subject: CCCc1cc(NC(=O)c2cc(N3CCNC3=O)c(F)cc2F)n[nH]1
[reply] 1.56

[ask] Query: cytotoxicity at 70.5 h; subject: CSc1ccc(C(=O)N2CC(=O)N(CC3CC3)CC(O)C2)cc1 (stereo unspecified)
[reply] 2.74

* * *

# test.method.notes: Human HepG2 cell viability assay in 384 well format
# Type: toxicity, cell-based
# Set-up: dose 125 nL, time 70.5 hour; concentration not given beside the values
# condition.summary: HepG2 cells, read-out: Inhibition
Catalogue of compounds with associated cytotoxicity at 70.5 h
Report the figure in % without appending any unit label.

Solved cases (3 shown):
{"compound": "CCN(Cc1ccccc1C)S(C)(=O)=O", "cytotoxicity at 70.5 h [%]": -3.77}
{"compound": "COc1ccc(-c2cc3nn(CC(=O)NC(C)C)c(=O)n3c(C)n2)cc1", "cytotoxicity at 70.5 h [%]": 1.34}
{"compound": "Cn1cc(C(=O)N2CCCC(Cc3cccc4ncccc34)C2)cn1 (centres undefined)", "cytotoxicity at 70.5 h [%]": -3.73}

[ask] Query: cytotoxicity at 70.5 h; subject: Cc1cccnc1N1CC2(CCN(Cc3cccnc3)C2)C1
[reply] 16.3

[ask] Query: cytotoxicity at 70.5 h; subject: CC(C)OCc1ncn2c1CN(Cc1cccs1)CCC2
[reply] 1.83

[ask] Query: cytotoxicity at 70.5 h; subject: Cc1noc(C)c1CN1CCN(Cc2nccn2C)C(C)C1 (centres undefined)
[reply] -11.9

[ask] Query: cytotoxicity at 70.5 h; subject: CN(C)C(=O)CN1CCOCC2(CCN(CC3CCOCC3)CC2)C1
[reply] -7.63

[ask] Query: cytotoxicity at 70.5 h; subject: COc1cc(N2CC[C@@H]3O[C@@H](C(=O)NCCN(C)C)C[C@@H]32)ncn1
[reply] -9.68

* * *

Catalogue of compounds with associated cytotoxicity at 70.5 h
# test.method.notes: Human HepG2 cell viability assay in 384 well format
# Format: toxicity, cell-based
# Parameters: dose 125 nL, time 70.5 hour; concentration not given beside the values
# condition.summary: HepG2 cells, read-out: Inhibition
Report the figure in % without appending any unit label.

{"compound": "Cc1ncsc1CN1C[C@@H]2COC[C@]2(C(=O)NCc2cccnc2)C1", "readout.unit": "%", "value.reported": -14.8}
{"compound": "CSC1(CNC(=O)NC(C)c2ccc(F)c(F)c2)CCOCC1 (stereo unspecified)", "readout.unit": "%", "value.reported": -1.76}
{"compound": "Cc1ccccc1CC(=O)N1C[C@@H](O)[C@H](N2CCC(F)(F)CC2)C1", "readout.unit": "%", "value.reported": -7.85}
{"compound": "Cc1cnn(CC2CCCN2C(=O)c2ccc3[nH]c(=O)[nH]c3c2)c1 (stereo unspecified)", "readout.unit": "%", "value.reported": -1.55}
{"compound": "Cc1cccc(CN2C[C@@H]3CN(C(=O)C4CC=CC4)C[C@@H]3C2=O)n1", "readout.unit": "%", "value.reported": -14.7}
{"compound": "Cn1c(CN2CCN(CC3CCCO3)CC2)nc2ccccc21 (stereo unspecified)", "readout.unit": "%", "value.reported": -9.16}
{"compound": "COCCC1(CO)CCCN(CCCc2ccccc2)C1 (stereo unspecified)", "readout.unit": "%", "value.reported": 22.6}
{"compound": "CN(C)C(=O)COc1ccccc1CN1CCCC2(C1)CN(C)C(=O)O2 (stereo unspecified)", "readout.unit": "%", "value.reported": -7.63}

[ask] Query: cytotoxicity at 70.5 h; subject: CN(C)c1cc2c(nn1)CCN(C(=O)Cc1noc3ccccc13)C2
[reply] 9.27

[ask] Query: cytotoxicity at 70.5 h; subject: CCn1cc(NC(=O)CCc2ccc3c(c2)OCCCO3)cn1
[reply] 10.1

[ask] Query: cytotoxicity at 70.5 h; subject: CCCOC1CCCN(C(=O)c2ccnnc2)C1 (stereo unspecified)
[reply] -2.27

* * *

# test.method.notes: Human HepG2 cell viability assay in 384 well format
# Type: toxicity, cell-based
# Set-up: dose 125 nL, time 70.5 hour; concentration not given beside the values
# condition.summary: HepG2 cells, read-out: Inhibition
Catalogue of molecules with associated cytotoxicity at 70.5 h
Report the figure in % without appending any unit label.

Solved cases (5 shown):
{"molecule": "CN(C)c1ncc(-c2cc(C(=O)NC(C)(C)CO)n(CC3CC3)c2)cn1", "value.reported": -12.5}
{"molecule": "O=C(NC1CCC1)C1=NOC2(CCN(Cc3ccco3)C2)C1 (stereo unspecified)", "value.reported": 6.54}
{"molecule": "c1ccc(Cc2noc(-c3ccc(NCC4COCCO4)nc3)n2)cc1 (stereo unspecified)", "value.reported": -5.85}
{"molecule": "CC(C)CCC(=O)N1CCC2(CC1)OCCO2", "value.reported": -4.64}
{"molecule": "Cc1cc(C)c(CNC(=O)NCCC2CCCO2)c(=O)[nH]1 (stereo unspecified)", "value.reported": -2.77}

// moving on: another record for cytotoxicity at 70.5 h
[ask] Query: cytotoxicity at 70.5 h; subject: CC(C)(NS(C)(=O)=O)c1nc(-c2cccc(Cl)c2)no1
[reply] -4.4

* * *

# test.method.notes: Human HepG2 cell viability assay in 384 well format
# Type: toxicity, cell-based
# Parameters: dose 125 nL, time 70.5 hour; concentration not given beside the values
# condition.summary: HepG2 cells, read-out: Inhibition
Catalogue of compounds with associated cytotoxicity at 70.5 h
Report the figure in % without appending any unit label.

Solved cases (5 shown):
{"compound": "Cc1cc(-c2ccc(=O)n(C3CCN(S(=O)(=O)N(C)C)CC3)n2)c(C)o1", "readout.unit": "%", "cytotoxicity at 70.5 h": 3.38}
{"compound": "O=C(c1ccc(C2CCCN2)s1)N1CCN(C(=O)N2CCOCC2)CC1 (centres undefined)", "readout.unit": "%", "cytotoxicity at 70.5 h": -6.24}
{"compound": "CC(Cc1cccs1)C(=O)NCc1cccc(N2CCCC2=O)c1 (centres undefined)", "readout.unit": "%", "cytotoxicity at 70.5 h": -8.97}
{"compound": "CN(Cc1ccccc1-n1cccn1)c1nc(N)nc2c1CCNCC2", "readout.unit": "%", "cytotoxicity at 70.5 h": 4.77}
{"compound": "Cc1occc1C(=O)N1CCC2(CCN(Cc3ccccn3)C2=O)C1 (centres undefined)", "readout.unit": "%", "cytotoxicity at 70.5 h": 5.42}

[ask] Query: cytotoxicity at 70.5 h; subject: COC(=O)C1Cc2nc[nH]c2CN1Cc1ccc(Sc2ncccn2)o1 (centres undefined)
[reply] -0.897

[ask] Query: cytotoxicity at 70.5 h; subject: CC1CCCN(C(=O)C2CCN(c3snc4ccccc34)CC2)C1 (centres undefined)
[reply] 5.93

[ask] Query: cytotoxicity at 70.5 h; subject: CCOCc1ncn2c1CN(S(=O)(=O)c1cccs1)CCC2
[reply] 12.5

[ask] Query: cytotoxicity at 70.5 h; subject: Cc1nn(C)c2ncc(CN3CCN(Cc4ccco4)CC3)cc12
[reply] -18.7
